The reported numbers originate from paper PMC4721142.

# Test system: MMT/MCLT rat model of OA
# PROTOCOL_SUMMARY: MMT/MCLT trial 1 histopathology (same doses)
# Format: in vivo
# CONDITIONS_USED: vs saline group; low or only dose
EXPERIMENTAL_ENDPOINT: % decrease, tibial score zone 2 (%)
# output: bare number, implied unit %

Use the examples below as a reference point.
# STRUCTURE_AS_SMILES, EXPERIMENTAL_ENDPOINT, REPORTED_RESULT
measured = [
    ("CC1=C(CO)C(=O)O[C@@H]([C@@H](C)[C@H]2CC[C@H]3[C@@H]4C[C@H]5O[C@]56[C@@H](O)C=CC(=O)[C@]6(C)[C@H]4CC[C@]23C)C1", "% decrease, tibial score zone 2", 15),
    ("COc1cc(/C=C/C(=O)CC(=O)/C=C/c2ccc(O)c(OC)c2)ccc1O", "% decrease, tibial score zone 2", -8),
]

Item C=CC[C@@H]1/C=C(\C)C[C@H](C)C[C@H](OC)[C@H]2O[C@@](O)(C(=O)C(=O)N3CCCC[C@H]3C(=O)O[C@H](/C(C)=C/[C@@H]3CC[C@@H](O)[C@H](OC)C3)[C@H](C)[C@@H](O)CC1=O)[C@H](C)C[C@@H]2OC : provide % decrease, tibial score zone 2 32

###

# Tested on: SW982
# PROTOCOL_SUMMARY: Synovial toxicity (CellTiter-Glo), with or without TNF-α
EXPERIMENTAL_ENDPOINT: Non-toxic range (Synovial)

Here's what some known entries look like.
# COMPOUND, Non-toxic range (Synovial)
measured = [
    ("Clc1cccc(Cl)c1N=C1NCCN1 [Clonidine]", "1.56 to 100 µM"),
    ("O=C(O)c1cc(/N=N/c2ccc(S(=O)(=O)Nc3ccccn3)cc2)ccc1O [Sulfasalazine]", "12.5 to 400 µM"),
    ("CC(C)(C)CC(=O)OCC(=O)[C@@]12OC(C)(C)O[C@@H]1C[C@H]1[C@@H]3CCC4=CC(=O)C=C[C@]4(C)[C@@]3(F)[C@@H](O)C[C@@]12C [Triamcinolone hexacetonide]", "3.12 to 400 µM"),
]

Read the entry COc1cc(/C=C/C(=O)CC(=O)/C=C/c2ccc(O)c(OC)c2)ccc1O [Curcumin, Diferuloylmethane] and write its reported Non-toxic range (Synovial). 1.7 to 54 µM

Give recorded Non-toxic range (Synovial). NC(=O)Nc1sc(-c2ccc(F)cc2)cc1C(N)=O [IKK-2 inhibitor IV] 0 to 2e+07 µM

Answer with reported Non-toxic range (Synovial) of Cc1cnc(NC(=O)C2=C(O)c3ccccc3S(=O)(=O)N2C)s1 [Meloxicam] 0.25 to 16 µM

Name the recorded Non-toxic range (Synovial) of the item Nc1cc(-c2ccncc2)c[nH]c1=O [Amrinone] in your answer. 1.25 to 40 µM

Answer with the recorded Non-toxic range (Synovial) of O=C(O)c1cc(O)c2c(c1)C(=O)c1cccc(O)c1C2=O [Rhein] only. 625000 to 4e+07 µM

Tell me Non-toxic range (Synovial) reported for Cc1ccc(S(=O)(=O)/C=C/C#N)cc1 [BAY-117082, BAY-11-7082] 3 to 6 µM

Recall and state the measured Non-toxic range (Synovial) for CC1=C(CC(=O)O)c2cc(F)ccc2/C1=C\c1ccc([S+](C)[O-])cc1 (stereo not drawn) [Sulindac] . 4.4 to 280 µM

Please give the documented Non-toxic range (Synovial) of CC1(C)O[C@@H]2C[C@H]3[C@@H]4CCC5=CC(=O)C=C[C@]5(C)[C@@]4(F)[C@@H](O)C[C@]3(C)[C@]2(C(=O)CO)O1 [Triamcinolone acetonide] 0.7 to 250 µM

Respond only with Non-toxic range (Synovial) recorded for NC(=O)Nc1sc(-c2ccccc2)cc1C(N)=O [IKK inhibitor VI] 0.028 to 0.25 µM

Assign Non-toxic range (Synovial) to the following record: C=CC[C@@H]1/C=C(\C)C[C@H](C)C[C@H](OC)[C@H]2O[C@@](O)(C(=O)C(=O)N3CCCC[C@H]3C(=O)O[C@H](/C(C)=C/[C@@H]3CC[C@@H](O)[C@H](OC)C3)[C@H](C)[C@@H](O)CC1=O)[C@H](C)C[C@@H]2OC [Tacrolimus] 1.5 to 100 µM

Tell me its Non-toxic range (Synovial) given CC[C@@H]1/C=C(\C)C[C@H](C)C[C@H](OC)[C@H]2O[C@@](O)(C(=O)C(=O)N3CCCC[C@H]3C(=O)O[C@H](/C(C)=C/[C@@H]3CC[C@@H](O)[C@H](OC)C3)[C@H](C)[C@@H](O)CC1=O)[C@H](C)C[C@@H]2OC [Ascomycin] as the entry. 625000 to 4e+07 µM

Using known records, supply Non-toxic range (Synovial) for COc1ccc(C=CC(=O)Nc2ccccc2C(=O)O)cc1OC [Tranilast] 0.125 to 8 µM

###

# Tested on: NF-κB
# PROTOCOL_SUMMARY: TNF-α-stimulated NF-κB dual luciferase reporter assay in HeLa cells
# Format: cell-based
EXPERIMENTAL_ENDPOINT: Effective against NF κβ (p<0.05)

Solved cases (5 shown):
# STRUCTURE_AS_SMILES, Effective against NF κβ (p<0.05)
rows = [
    ("Cc1ccc(S(=O)(=O)/C=C/C#N)cc1", "12 to 96 µM"),
    ("CC1=C(CO)C(=O)O[C@@H]([C@@H](C)[C@H]2CC[C@H]3[C@@H]4C[C@H]5O[C@]56[C@@H](O)C=CC(=O)[C@]6(C)[C@H]4CC[C@]23C)C1", "2 to 17 µM"),
    ("O=C(Nc1cc(C(F)(F)F)cc(C(F)(F)F)c1)c1cc(Cl)ccc1O", "Only at toxic"),
    ("NC(=O)Nc1sc(-c2ccccc2)cc1C(N)=O", "0.23 to 15.3 µM"),
    ("O=C(O)c1cc(O)c2c(c1)C(=O)c1cccc(O)c1C2=O", "Only at toxic"),
]

Next up:
Hello, please tell me recorded Effective against NF κβ (p<0.05) for this one: Cc1ccc2nc(NCCN)c3ncc(C)n3c2c1 1 to 15.6 µM

###

# Tested on: MIA rat model of OA
# PROTOCOL_SUMMARY: MIA trial 3 histopathology (same doses as dRS test)
# Format: in vivo
# CONDITIONS_USED: group mean; i.a. weekly
Decision: Total joint score w/o matrix beneath 7 gives 1; Total joint score w/o matrix meeting or exceeding 7 gives 0.

Below 7 on Total joint score w/o matrix? Entry Clc1cccc(Cl)c1N=C1NCCN1 1

###

Each item that follows carries a reported % decrease, significant degeneration width.
# Tested on: MMT/MCLT rat model of OA
# PROTOCOL_SUMMARY: MMT/MCLT trial 1 histopathology (same doses)
# Type: in vivo
# CONDITIONS_USED: vs saline group; low or only dose
# Source text: For MMT/MCLT rat knee joints, sections were cut in 200-μm steps; stained with toluidine blue (also with a right and left half per section); and similarly analyzed for cartilage degeneration, proteoglycan loss, collagen damage, and osteophyte formation. […] Cartilage degeneration in the tibia was scored on a 5-point scale as detailed in the Methods section of Additional file 1. […] Collagen damage across the medial tibial plateau (the most severely affected section of the two halves) was also quantified. […]
Express it in %; write the number only.

Examples with their reported % decrease, significant degeneration width follow.
# COMPOUND, REPORTED_RESULT
data = [
    ("NCCCC(O)(P(=O)(O)O)P(=O)(O)O [Alendronate, Alendronate sodium]", 11),
    ("COc1cc(/C=C/C(=O)CC(=O)/C=C/c2ccc(O)c(OC)c2)ccc1O", -2),
    ("C=CC[C@@H]1/C=C(\\C)C[C@H](C)C[C@H](OC)[C@H]2O[C@@](O)(C(=O)C(=O)N3CCCC[C@H]3C(=O)O[C@H](/C(C)=C/[C@@H]3CC[C@@H](O)[C@H](OC)C3)[C@H](C)[C@@H](O)CC1=O)[C@H](C)C[C@@H]2OC", 39),
    ("CC1(C)O[C@@H]2C[C@H]3[C@@H]4C[C@H](F)C5=CC(=O)C=C[C@]5(C)[C@@]4(F)[C@@H](O)C[C@]3(C)[C@]2(C(=O)CO)O1 [Fluocinolone, Fluocinolone Acetonide]", 16),
    ("CC1=C(CO)C(=O)O[C@@H]([C@@H](C)[C@H]2CC[C@H]3[C@@H]4C[C@H]5O[C@]56[C@@H](O)C=CC(=O)[C@]6(C)[C@H]4CC[C@]23C)C1", 12),
]

Using the record for Clc1cccc(Cl)c1N=C1NCCN1 , state its measured % decrease, significant degeneration width. 5

Please report the measured % decrease, significant degeneration width for CN1CC[C@]23c4c5ccc(O)c4O[C@H]2[C@@H](O)C=C[C@H]3[C@H]1C5 8

###

# Tested on: RAW 264.7 cells
# PROTOCOL_SUMMARY: RANKL-mediated osteoclastogenesis / matrix resorption (Osteologic) assay
# Type: cell-based, murine
EXPERIMENTAL_ENDPOINT: Effective range against Osteoclasts

Consider the following illustrative entries.
# COMPOUND, Effective range against Osteoclasts
data = [
    ("CC1(C)O[C@@H]2C[C@H]3[C@@H]4C[C@H](F)C5=CC(=O)C=C[C@]5(C)[C@@]4(F)[C@@H](O)C[C@]3(C)[C@]2(C(=O)CO)O1 [Fluocinolone, Fluocinolone Acetonide]", "≥ 0.00977 µM"),
    ("O=C(O)c1cc(O)c2c(c1)C(=O)c1cccc(O)c1C2=O", "Not effective"),
    ("O=C1C(=Cc2ccccc2F)CNCC1=Cc1ccccc1F", "Not effective"),
    ("Cc1cnc(NC(=O)C2=C(O)c3ccccc3S(=O)(=O)N2C)s1", "Not effective"),
]

Would you kindly look at the next entry?
Return value of Effective range against Osteoclasts for input Cc1ccc(S(=O)(=O)/C=C/C#N)cc1 , no commentary. ≥ 3 µM
